Every entry's value here was drawn from ChEMBL document CHEMBL5528065.

Test system: Plasmodium falciparum
Test: Antimalarial activity against drug-sensitive Plasmodium falciparum 3D7 infected in human erythrocytes assessed as reduction in parasitemia incubated for 72 hrs by SYBR green I and Mitotracker deep red dye based flow cytometric analysis
Format: functional, organism-based
Conditions: Plasmodium falciparum, 3D7, 72 h
Value Type: log10 EC50 (log10 of the value in nM)
Please interpret these as log10 of EC50 where EC50 is in nM.

Below are worked cases with known answers.
| Compound | log10 EC50 |
| --- | --- |
| C[C@H]1CN(C)CC[C@@H]1c1cc(-c2ccncc2)c(-c2ccc(F)cc2)[nH]1.Cl.Cl | 1.90 |
| CN1CCC(c2cc(-c3ccnc(C(N)=O)c3)c(-c3ccc(F)cc3)[nH]2)CC1.Cl.Cl | 3.59 |
| COc1ccc(-c2[nH]c(C3CCN(C)CC3)cc2-c2ccncc2)cc1.Cl.Cl | 2.36 |

Kindly review the next compound as well.
Lookup: Note down log10 EC50 recorded for CC(O)c1cc(-c2cc(C3CCN(C)CC3)[nH]c2-c2ccc(F)cc2)ccn1.Cl.Cl (configuration not stated)
Found: 3.53
